These data points were gathered from paper PMC8469912.

List of melting point values.

In the examples that follow, each entry is paired with its recorded melting point.
1) COc1ccc2cc([C@H](C)c3nnc(SCC(=O)Nc4ccc(F)cc4F)o3)ccc2c1 : 102 to 103 °C
2) COc1ccc2cc([C@H](C)c3nnc(SCC(=O)Nc4ccc(F)cc4)o3)ccc2c1 : 220 to 221 °C
3) COc1ccc2cc([C@H](C)c3nnc(SCc4cn(-c5ccc(Br)cc5)nn4)o3)ccc2c1 : 160 to 161 °C

Next up:
Exercise: Look at this compound and give its reported melting point. COc1ccc2cc([C@H](C)c3nnc(SCc4cn(-c5ccc(F)cc5)nn4)o3)ccc2c1
Solution: 99 to 100 °C

---

List of melting point values.

In the examples that follow, each entry is paired with its recorded melting point.
1) COc1ccc2cc([C@H](C)c3nnc(SCC(=O)Nc4cccc(Br)c4)o3)ccc2c1 : 129 to 130 °C
2) COc1ccc2cc([C@H](C)c3nnc(SCC(=O)Nc4ccccc4C(=O)O)o3)ccc2c1 : 130 to 131 °C
3) COc1ccc2cc([C@H](C)c3nnc(SCC(=O)Nc4ccc(Br)cc4)o3)ccc2c1 : 148 to 149 °C

Next up:
Exercise: Look at this compound and give its reported melting point. COc1ccc2cc([C@H](C)c3nnc(SCc4cn(-c5ccc(Cl)cc5Cl)nn4)o3)ccc2c1
Solution: 102 to 103 °C

---

System: HepG2 (Hepatocellular)
Experiment: Antiproliferative activity, sulphorhodamine B (SRB) assay, HepG2
Format: cell-based
Details: Homo sapiens, HepG2, cytotoxicity, HepG2 liver cancer cells, mean of three independent experiments
MEASURED METRIC: IC50 (µg/mL)
Use µg/mL as the unit, but write only the number.

In the examples that follow, each entry is paired with its recorded IC50.
1. COc1ccc2cc([C@H](C)c3nnc(SCC(=O)Nc4ccccc4C(=O)O)o3)ccc2c1 : 28
2. COc1ccc2cc([C@H](C)c3nnc(SCc4cn(-c5ccccc5O)nn4)o3)ccc2c1 : 1.63
3. COc1ccc2cc([C@H](C)c3nnc(SCc4cn(-c5ccccc5Cl)nn4)o3)ccc2c1 : 3.53
4. COc1ccc2cc([C@H](C)c3nnc(SCC(=O)Nc4ccc(F)cc4F)o3)ccc2c1 : 31.3

Exercise: Look at this molecule and give its reported IC50. COc1ccc2cc([C@H](C)c3nnc(SCC(=O)N4CCOCC4)o3)ccc2c1
Solution: 23.6

Exercise: Look at this molecule and give its reported IC50. COc1ccc2cc([C@H](C)c3nnc(SCC(=O)Nc4ccccc4C)o3)ccc2c1
Solution: 4.88

Exercise: Look at this molecule and give its reported IC50. COc1ccc2cc([C@H](C)c3nnc(SCc4cn(-c5ccc(Cl)cc5Cl)nn4)o3)ccc2c1
Solution: 26.4

Exercise: Look at this molecule and give its reported IC50. COc1ccc2cc([C@H](C)c3nnc(SCc4cn(-c5ccc(F)cc5F)nn4)o3)ccc2c1
Solution: 4.52

Exercise: Look at this molecule and give its reported IC50. COc1ccc2cc([C@H](C)c3nnc(SCc4cn(-c5ccc(Br)cc5)nn4)o3)ccc2c1
Solution: 7.63

Exercise: Look at this molecule and give its reported IC50. COc1ccc2cc([C@H](C)c3nnc(SCc4cn(-c5cccc(C(=O)O)c5)nn4)o3)ccc2c1
Solution: 10.7

Exercise: Look at this molecule and give its reported IC50. COc1ccc2cc([C@H](C)c3nnc(SCc4cn(-c5cccc(Br)c5)nn4)o3)ccc2c1
Solution: 7.07

Exercise: Look at this molecule and give its reported IC50. COc1ccc2cc([C@H](C)c3nnc(SCc4cn(-c5cccc(Cl)c5)nn4)o3)ccc2c1
Solution: 37.9

Exercise: Look at this molecule and give its reported IC50. COc1ccc2cc([C@H](C)c3nnc(SCc4cn(-c5ccc(F)cc5)nn4)o3)ccc2c1
Solution: 25.5

Exercise: Look at this molecule and give its reported IC50. COc1ccc2cc([C@H](C)c3nnc(SCC(=O)Nc4cccc(Cl)c4)o3)ccc2c1
Solution: 7

Exercise: Look at this molecule and give its reported IC50. COc1ccc2cc([C@H](C)c3nnc(SCC(=O)Nc4ccc(Br)cc4)o3)ccc2c1
Solution: 15

Exercise: Look at this molecule and give its reported IC50. COc1cccc2c1C(=O)c1c(O)c3c(c(O)c1C2=O)C[C@@](O)(C(=O)CO)C[C@@H]3O[C@H]1C[C@H](N)[C@H](O)[C@H](C)O1 [Doxorubicin, reference compound]
Solution: 1.62
